Reported CLint scaled is given for each of the following compounds.
Assay: Metabolic stability in rat liver microsomes assessed as intrinsic clearance measured upto 90mins by HPLC/MS/MS analysis
Type: ADME, Microsome
Settings: read-out: CLH
QUANTITY_NAME: CLint scaled

COMPOUND | QUANTITY_NAME | ENDPOINT_RESULT
Cc1cc(C(=O)NC2CCc3cc(-c4noc(C)n4)ccc32)on1 (racemic) | CLint scaled | 48 mL/min/kg
Cc1nc(-c2ccc3c(c2)CCC3NC(=O)c2ccccc2)no1 (racemic) | CLint scaled | > 124 mL/min/kg
CCc1nc(-c2ccc3c(c2)CCC3NC(=O)c2ccccc2)no1 (racemic) | CLint scaled | > 124 mL/min/kg
Cc1nc(-c2ccc3c(c2)CCC3NC(=O)c2oncc2C)no1 (racemic) | CLint scaled | 46 mL/min/kg
CCc1nc(-c2ccc3c(c2)CC[C@H]3NC(=O)c2cc(C)ncn2)no1 | CLint scaled | 24 mL/min/kg
COCc1nc(-c2ccc3c(c2)CC[C@H]3NC(=O)c2cnn(C)c2)no1 | CLint scaled | < 21 mL/min/kg
Cc1nc(-c2ccc3c(c2)CC[C@H]3NC(=O)c2cnn(C)c2)no1 | CLint scaled | < 21 mL/min/kg
Cn1nnc(C(=O)N[C@@H]2CCc3cc(-c4noc(C5CC5)n4)ccc32)n1 | CLint scaled | < 21 mL/min/kg
CC(C)c1nc(-c2ccc3c(c2)CC[C@H]3NC(=O)c2nnn(C)n2)no1 | CLint scaled | < 21 mL/min/kg
Cn1cc(C(=O)N[C@@H]2CCc3cc(-c4noc(C(F)F)n4)ccc32)cn1 | CLint scaled | < 21 mL/min/kg
Cc1cc(C(=O)NC2CCc3cc(-c4noc(C)n4)ccc32)ccn1 (racemic) | CLint scaled | < 21 mL/min/kg
Cc1cc(C(=O)N[C@@H]2CCc3cc(-c4noc(C(C)C)n4)ccc32)ccn1 | CLint scaled | 23 mL/min/kg
Cc1nc(-c2ccc3c(c2)CCC3NC(=O)c2nnn(C)n2)no1 (racemic) | CLint scaled | < 21 mL/min/kg
CCc1nc(-c2ccc3c(c2)CC[C@H]3NC(=O)c2cnn(C)c2)no1 | CLint scaled | < 21 mL/min/kg
CCc1nc(-c2ccc3c(c2)CC[C@H]3NC(=O)c2cnc(C)o2)no1 | CLint scaled | < 21 mL/min/kg
CCc1nc(-c2ccc3c(c2)CC[C@H]3NC(=O)c2cn[nH]c2)no1 | CLint scaled | 66 mL/min/kg
Cc1cc(C(=O)N[C@@H]2CCc3cc(-c4noc(C5CC5)n4)ccc32)ccn1 | CLint scaled | < 21 mL/min/kg
CCc1nc(-c2ccc3c(c2)CC[C@H]3NC(=O)c2ccnc(C)c2)no1 | CLint scaled | 23 mL/min/kg
Cc1nc(-c2ccc3c(c2)CC[C@@H]3NC(=O)c2cnn(C)c2)no1 | CLint scaled | < 21 mL/min/kg
Cc1nc(-c2ccc3c(c2)CCC3NC(=O)c2cnc(C)n2C)no1 (racemic) | CLint scaled | < 21 mL/min/kg
CCc1nc(-c2ccc3c(c2)CC[C@H]3NC(=O)c2nnn(C)n2)no1 | CLint scaled | < 21 mL/min/kg

###

Assay: Volume of distribution at steady state in mouse at 0.5 mg/kg, iv
Format: ADME, organism-based
Conditions: in vivo, read-out: Vdss

COMPOUND | UNIT_NAME | Vd
CCc1nc(-c2ccc3c(c2)CC[C@H]3NC(=O)c2cnn(C)c2)no1 [AFICAMTEN] | L/kg | 3.14

Reference source: ChEMBL document CHEMBL4831540
